Entries and their melting point values follow.

Below: 6 molecules and their reported melting point.
>>> print(df.to_string())
                                   molecule  measurement_type            val
0          O=C1CN(c2nccnc2[N+](=O)[O-])CCN1     melting point  178 to 179 °C
1         Cc1c(C)c2c(c(C)c1N)C(=O)C(C)(C)O2     melting point    92 to 93 °C
2  O=C1COc2ccc(-c3cnn(CC(F)(F)F)c3-c3ccc(F)cc3)cc2N1     melting point         227 °C
3  Oc1ccccc1-c1cc(-c2ccc(F)c(F)c2)cc(-c2ccco2)n1     melting point  147 to 148 °C
4       Nc1sc2c(c1C(=O)c1ccc3ccccc3c1)CCCC2     melting point    95 to 97 °C
5  COC(=O)c1ccc(Cn2c(C(=O)NC(N)=S)cc3cc(C)cc(C)c32)cc1     melting point  222 to 224 °C

// CCCCCCOc1ccc(Nc2ncc(F)c(Nc3ccc4c(c3)OCCO4)n2)cc1 : melting point value = 115 to 117 °C

// NS(=O)(=O)c1ccc(-c2cc(-c3nc(-c4ccc(C(F)(F)F)cc4)cc(C(F)(F)F)n3)ccn2)s1 : melting point value = 262 °C

====

Entries and their melting point values follow.

// COc1cc2c(Nc3cccc(Cl)c3F)ncnc2cc1O[C@H]1CCCN(C(=O)CN2CCN(C)CC2)C1 : melting point value = 120 to 121 °C

// Clc1cc2nc(NC3=NCCN3)[nH]c2c(Cl)c1Cl : melting point value = 324 to 326 °C

====

measurement type: melting point

Below: 5 compounds and their reported melting point.
>>> print(df.to_string())
                                   compound            val
0  CC(=O)NNC(=S)N1N=C(c2ccc([N+](=O)[O-])cc2)c2cc3c(cc2CC1C)OCO3 (stereo not given)         118 °C
1  COc1ccc(C2CNCCc3c2cc(OC)c(OC)c3Cl)cc1 (stereo not given)  139 to 142 °C
2  Cc1ccc(S(=O)(=O)NCCc2cccc(OCC(=O)Nc3nnn[nH]3)c2)cc1  199 to 201 °C
3  Nc1nc2c(s1)CC(N1CCN(c3ccccn3)CC1)CC2 (single isomer, unassigned; (-))  230 to 232 °C
4  COc1cccc(Cl)c1-c1cc2c(c3c1C(=O)NC3=O)c1cc(O)ccc1n2CCCN1C[C@@H](C)N[C@@H](C)C1  199 to 202 °C

As a next step, examine the compound that follows.
// CC(C)(C)OC(=O)N[C@H]1CC[C@H](CCN2CCN(c3cccc(Cl)c3Cl)CC2)CC1 : melting point value = 150 to 154 °C

====

Entries and their melting point values follow.

                                   molecule  measurement_type            val
0  COc1cccc([C@H]2O[C@H](CC(=O)Nc3nc(C(=O)O)cs3)C(=O)N(CC(C)(C)CO)c3ccc(Cl)cc32)c1OC     melting point  277 to 278 °C
1  CCOc1ccc(C(=O)c2c(-c3ccc(OC)cc3)sc3cc(OC)ccc23)cc1     melting point  124 to 125 °C
2  CCCCC12CCC3=C(CCc4cc(OC)ccc43)C1CCC2O (stereo unspecified)     melting point   90 to 100 °C

// NS(=O)(=O)c1ccc(-c2[nH]c3ccccc3c2-c2ccc(O)cc2)cc1 : melting point value = 241 to 243 °C

// COCC1CN(c2ccc3cc(S(N)(=O)=O)ccc3c2)C(=O)O1 (stereo unspecified) : melting point value = 166 to 168 °C
